# key: entry, value: pIC50
# target-or-test-system: D(2) dopamine receptor (Rattus norvegicus, UniProt P61169)
# Sequence (P61169 whole entry): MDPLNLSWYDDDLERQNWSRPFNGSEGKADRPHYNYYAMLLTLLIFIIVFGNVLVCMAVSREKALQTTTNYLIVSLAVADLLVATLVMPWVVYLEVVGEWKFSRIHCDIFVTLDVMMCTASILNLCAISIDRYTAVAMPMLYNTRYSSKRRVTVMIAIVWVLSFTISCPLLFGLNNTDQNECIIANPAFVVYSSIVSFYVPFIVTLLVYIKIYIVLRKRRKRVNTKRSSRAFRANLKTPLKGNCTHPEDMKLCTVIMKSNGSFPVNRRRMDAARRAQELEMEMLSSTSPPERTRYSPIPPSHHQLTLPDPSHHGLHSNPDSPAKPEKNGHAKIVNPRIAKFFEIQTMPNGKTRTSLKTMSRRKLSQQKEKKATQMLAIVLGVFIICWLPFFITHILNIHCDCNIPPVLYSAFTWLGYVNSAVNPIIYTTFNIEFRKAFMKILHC
# run-description: Binding affinity against Dopamine receptor D2 from rat using [3H]raclopride as radioligand
Reminder that pIC50 means the negative base-10 logarithm of the concentration expressed in mol/L.

Q: Bench note: what pIC50 did Nc1ccc(C#CCCN2CCC(O)(Cc3ccc(F)cc3)CC2)cc1 show?
Result: 5.10

Q: Bench note: what pIC50 did NCc1cccc(C#CCCN2CCC(Cc3ccccc3)CC2)c1 show?
Result: 6.52

====

# target-or-test-system: Glutamate NMDA receptor; Grin1/Grin2b (Rattus norvegicus, UniProt P35439+Q00960)
# Sequence (Q00960 whole entry, other chains not shown): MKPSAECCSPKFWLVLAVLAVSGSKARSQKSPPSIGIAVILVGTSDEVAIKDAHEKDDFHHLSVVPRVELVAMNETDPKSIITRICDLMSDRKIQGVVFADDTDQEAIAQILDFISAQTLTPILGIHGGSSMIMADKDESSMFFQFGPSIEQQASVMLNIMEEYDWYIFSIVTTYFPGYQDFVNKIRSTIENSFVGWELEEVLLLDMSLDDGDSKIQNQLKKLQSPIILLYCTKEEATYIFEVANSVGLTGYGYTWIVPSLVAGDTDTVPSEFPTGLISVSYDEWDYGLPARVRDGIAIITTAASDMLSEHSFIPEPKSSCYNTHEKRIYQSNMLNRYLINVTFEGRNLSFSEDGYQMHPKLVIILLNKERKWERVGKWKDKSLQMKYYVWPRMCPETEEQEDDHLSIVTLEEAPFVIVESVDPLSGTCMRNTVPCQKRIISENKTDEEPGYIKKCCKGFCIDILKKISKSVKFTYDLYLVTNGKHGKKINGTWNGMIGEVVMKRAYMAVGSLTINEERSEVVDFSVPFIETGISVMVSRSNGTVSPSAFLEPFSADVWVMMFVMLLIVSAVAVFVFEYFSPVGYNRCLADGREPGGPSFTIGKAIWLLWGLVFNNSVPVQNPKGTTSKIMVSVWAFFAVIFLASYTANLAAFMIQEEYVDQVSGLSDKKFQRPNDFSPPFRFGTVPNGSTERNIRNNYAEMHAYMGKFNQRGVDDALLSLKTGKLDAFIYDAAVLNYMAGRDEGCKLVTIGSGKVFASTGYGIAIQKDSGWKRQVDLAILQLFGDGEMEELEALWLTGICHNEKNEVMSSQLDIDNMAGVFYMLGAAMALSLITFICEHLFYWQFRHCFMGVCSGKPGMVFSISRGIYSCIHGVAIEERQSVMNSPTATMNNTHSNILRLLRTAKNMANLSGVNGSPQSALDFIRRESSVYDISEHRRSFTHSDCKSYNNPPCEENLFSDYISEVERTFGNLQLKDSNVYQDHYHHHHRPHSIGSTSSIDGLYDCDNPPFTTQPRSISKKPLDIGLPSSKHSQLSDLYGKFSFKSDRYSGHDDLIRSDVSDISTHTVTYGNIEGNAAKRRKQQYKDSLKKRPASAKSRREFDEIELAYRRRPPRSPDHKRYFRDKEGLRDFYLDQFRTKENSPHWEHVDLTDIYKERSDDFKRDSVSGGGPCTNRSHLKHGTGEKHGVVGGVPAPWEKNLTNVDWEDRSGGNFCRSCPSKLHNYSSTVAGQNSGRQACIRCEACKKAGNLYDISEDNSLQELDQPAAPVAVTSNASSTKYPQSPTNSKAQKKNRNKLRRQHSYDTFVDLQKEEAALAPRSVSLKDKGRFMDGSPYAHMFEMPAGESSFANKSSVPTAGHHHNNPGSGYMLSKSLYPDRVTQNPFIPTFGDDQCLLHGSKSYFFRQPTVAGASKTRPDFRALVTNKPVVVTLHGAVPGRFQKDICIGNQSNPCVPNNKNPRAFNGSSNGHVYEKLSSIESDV
# run-description: Antagonistic activity against rat N-methyl-D-aspartate glutamate receptor 1/2B expressed in Xenopus oocytes
# Type: functional, cell-based, Oocyte
reported-endpoint: pIC50
Reminder that pIC50 means the negative base-10 logarithm of the concentration expressed in mol/L.

input-smiles | pIC50
CS(=O)(=O)Nc1ccc(C#CCCN2CCC(Cc3ccccc3)CC2)cc1 | 6.62
NCc1cccc(C#CCCN2CCC(Cc3ccccc3)CC2)c1 | 6.28
CC(=O)Nc1ccc(C#CCN2CCC(Cc3ccccc3)CC2)cc1 | 4.89
CC(=O)Nc1ccc(C#CCCCN2CCC(Cc3ccccc3)CC2)cc1 | 5.85

Q: Bench note: what pIC50 did CS(=O)(=O)Nc1ccc(C#CCCCN2CCC(Cc3ccccc3)CC2)cc1 show?
Result: 6.55

Q: Bench note: what pIC50 did NC(=O)c1ccc(C#CCCN2CCC(Cc3ccccc3)CC2)cc1 show?
Result: 5.70

Q: Bench note: what pIC50 did NS(=O)(=O)c1ccc(C#CCCN2CCC(Cc3ccccc3)CC2)cc1 show?
Result: 6.51

====

# target-or-test-system: Glutamate NMDA receptor; Grin1/Grin2b (Rattus norvegicus, UniProt P35439+Q00960)
# run-description: Antagonistic activity against rat NR1A/2B receptor expressed in Xenopus oocytes
# Type: functional, cell-based, Oocyte
reported-endpoint: pIC50
Reminder that pIC50 means the negative base-10 logarithm of the concentration expressed in mol/L.

Worked examples, 5 molecules total:
input-smiles | target-or-test-system | quantitative-result
Nc1ccc(C#CCCN2CCC(Cc3ccccc3)CC2)cc1N | Glutamate NMDA receptor; Grin1/Grin2b (Rattus norvegicus, UniProt P35439+Q00960) | 6.72
Cc1ccc(CC2(O)CCN(CCC#Cc3ccc(N)cc3)CC2)cc1 | Glutamate NMDA receptor; Grin1/Grin2b (Rattus norvegicus, UniProt P35439+Q00960) | 6.43
Clc1ccc(C#CCCN2CCC(Cc3ccccc3)CC2)cc1 | Glutamate NMDA receptor; Grin1/Grin2b (Rattus norvegicus, UniProt P35439+Q00960) | 5.40
C(#Cc1ccccc1)CCN1CCC(Cc2ccccc2)CC1 | Glutamate NMDA receptor; Grin1/Grin2b (Rattus norvegicus, UniProt P35439+Q00960) | 5.33
Fc1ccc(C#CCCN2CCC(Cc3ccccc3)CC2)cc1 | Glutamate NMDA receptor; Grin1/Grin2b (Rattus norvegicus, UniProt P35439+Q00960) | 5.57

Q: Bench note: what pIC50 did Oc1ccc(C#CCCN2CCC(Cc3ccccc3)CC2)cc1 show?
Result: 6.77

Q: Bench note: what pIC50 did Cc1ccc(CC2CCN(CCC#Cc3ccc(N)cc3)CC2)cc1 show?
Result: 6.51

Q: Bench note: what pIC50 did Nc1ccc(C#CCCN2CCC(Cc3ccccc3)CC2)cc1 show?
Result: 6.37

====

# target-or-test-system: Adrenergic receptor alpha-1 (Rattus norvegicus, UniProt P15823+P23944+P43140)
# run-description: The compound was tested for binding affinity against Alpha-1 adrenergic receptor from rat using [3H]prazosin as radioligand
# Assay type: protein assay
# key: entry, value: IC50
Kindly provide the numeric value in nM only, without the unit symbol.

Worked examples, 2 compounds total:
input-smiles | IC50 [nM]
CNc1ccc(C#CCCN2CCC(Cc3ccccc3)CC2)cc1 | 1000
CS(=O)(=O)Nc1ccc(C#CCCCN2CCC(Cc3ccccc3)CC2)cc1 | 1100

Okay, now this compound:
Q: Bench note: what IC50 did NCc1cccc(C#CCCN2CCC(Cc3ccccc3)CC2)c1 show?
Result: 800

====

# key: entry, value: IC50
# target-or-test-system: Glutamate NMDA receptor; Grin1/Grin2a (Rattus norvegicus, UniProt P35439+Q00959)
# Sequence (Q00959 whole entry, other chains not shown): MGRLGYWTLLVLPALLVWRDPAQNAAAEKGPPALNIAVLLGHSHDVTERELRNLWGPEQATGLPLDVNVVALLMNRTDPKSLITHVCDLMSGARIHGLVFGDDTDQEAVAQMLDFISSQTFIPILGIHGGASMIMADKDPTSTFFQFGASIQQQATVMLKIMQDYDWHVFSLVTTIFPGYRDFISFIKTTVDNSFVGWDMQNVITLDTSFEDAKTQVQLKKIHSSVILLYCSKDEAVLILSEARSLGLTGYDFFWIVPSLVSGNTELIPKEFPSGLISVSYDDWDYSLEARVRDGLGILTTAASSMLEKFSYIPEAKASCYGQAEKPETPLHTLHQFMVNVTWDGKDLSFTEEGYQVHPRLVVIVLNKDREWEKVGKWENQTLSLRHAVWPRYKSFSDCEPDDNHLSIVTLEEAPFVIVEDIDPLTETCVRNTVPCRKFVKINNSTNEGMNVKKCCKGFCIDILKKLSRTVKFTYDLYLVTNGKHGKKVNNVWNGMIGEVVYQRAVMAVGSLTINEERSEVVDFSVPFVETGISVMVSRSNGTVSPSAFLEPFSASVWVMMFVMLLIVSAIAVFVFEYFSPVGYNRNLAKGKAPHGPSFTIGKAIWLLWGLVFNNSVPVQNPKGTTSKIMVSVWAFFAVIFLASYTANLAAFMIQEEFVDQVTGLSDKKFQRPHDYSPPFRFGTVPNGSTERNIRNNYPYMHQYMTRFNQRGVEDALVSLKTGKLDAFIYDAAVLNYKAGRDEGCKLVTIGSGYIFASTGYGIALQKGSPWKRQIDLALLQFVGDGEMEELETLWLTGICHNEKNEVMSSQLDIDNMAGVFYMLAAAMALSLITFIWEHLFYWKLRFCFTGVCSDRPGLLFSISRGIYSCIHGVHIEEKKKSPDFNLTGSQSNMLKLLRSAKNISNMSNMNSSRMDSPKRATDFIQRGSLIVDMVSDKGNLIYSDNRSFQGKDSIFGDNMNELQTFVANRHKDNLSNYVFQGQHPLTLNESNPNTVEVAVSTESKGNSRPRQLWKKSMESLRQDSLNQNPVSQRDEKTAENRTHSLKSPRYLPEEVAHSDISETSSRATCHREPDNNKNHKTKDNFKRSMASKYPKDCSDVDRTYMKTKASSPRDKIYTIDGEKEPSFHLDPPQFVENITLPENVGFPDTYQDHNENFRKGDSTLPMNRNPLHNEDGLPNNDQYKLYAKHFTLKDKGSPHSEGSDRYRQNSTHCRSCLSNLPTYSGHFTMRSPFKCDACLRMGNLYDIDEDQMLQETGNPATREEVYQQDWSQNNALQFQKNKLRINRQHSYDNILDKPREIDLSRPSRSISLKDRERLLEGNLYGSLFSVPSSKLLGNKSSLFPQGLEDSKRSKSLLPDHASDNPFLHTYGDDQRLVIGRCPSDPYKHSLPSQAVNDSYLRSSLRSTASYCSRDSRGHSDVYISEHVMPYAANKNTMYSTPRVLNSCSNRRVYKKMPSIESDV
# run-description: Antagonistic activity against rat NR1A/2A receptor, expressed in Xenopus oocytes
# Type: functional, cell-based, Oocyte

Worked examples, 2 compounds total:
input-smiles | target-or-test-system | result
Fc1ccc(C#CCCN2CCC(Cc3ccccc3)CC2)cc1 | Glutamate NMDA receptor; Grin1/Grin2a (Rattus norvegicus, UniProt P35439+Q00959) | > 100 µM
Nc1cccc(C#CCCN2CCC(Cc3ccccc3)CC2)c1 | Glutamate NMDA receptor; Grin1/Grin2a (Rattus norvegicus, UniProt P35439+Q00959) | > 100 µM

Okay, now this compound:
Q: Bench note: what IC50 did Clc1cccc(C#CCCN2CCC(Cc3ccccc3)CC2)c1 show?
Result: > 100 µM

====

# key: entry, value: IC50
# target-or-test-system: UniProtKB P61169
# run-description: Binding affinity against Dopamine receptor D2 from rat using [3H]raclopride as radioligand
Kindly provide the numeric value in nM only, without the unit symbol.

Worked examples, 3 molecules total:
input-smiles | quantitative-result
CS(=O)(=O)Nc1ccc(C#CCN2CCC(Cc3ccccc3)CC2)cc1 | 12000
Nc1ccc(C#CCCN2CCC(Cc3ccccc3)CC2)cc1 | 800
CS(=O)(=O)Nc1ccc(C#CCCCN2CCC(Cc3ccccc3)CC2)cc1 | 2300

Q: Bench note: what IC50 did NS(=O)(=O)c1ccc(C#CCCN2CCC(Cc3ccccc3)CC2)cc1 show?
Result: 100

Q: Bench note: what IC50 did Nc1ccc(C#CCCN2CCC(Cc3ccc(F)cc3)CC2)cc1 show?
Result: 400

Q: Bench note: what IC50 did Oc1ccc(C#CCCN2CCC(Cc3ccccc3)CC2)cc1 show?
Result: 290

====

# target-or-test-system: Glutamate NMDA receptor; Grin1/Grin2b (Rattus norvegicus, UniProt P35439+Q00960)
# run-description: Antagonistic activity against rat N-methyl-D-aspartate glutamate receptor 1/2B expressed in Xenopus oocytes
# Assay type: functional, cell-based, Oocyte
reported-endpoint: IC50 (nM)
Kindly provide the numeric value in nM only, without the unit symbol.

input-smiles | quantitative-result
CC(=O)Nc1ccc(C#CCCN2CCC(Cc3ccccc3)CC2)cc1 | 260
CN(C)c1ccc(C#CCCN2CCC(Cc3ccccc3)CC2)cc1 | 15000
CS(=O)(=O)Nc1ccc(C#CCN2CCC(Cc3ccccc3)CC2)cc1 | 150

Okay, now this molecule:
Q: Lab request: please report IC50 under test system Glutamate NMDA receptor; Grin1/Grin2b (Rattus norvegicus, UniProt P35439+Q00960) for CNc1ccc(C#CCCN2CCC(Cc3ccccc3)CC2)cc1
Result: 460

====

# target-or-test-system: D(2) dopamine receptor (Rattus norvegicus, UniProt P61169)
# run-description: Binding affinity against Dopamine receptor D2 from rat using [3H]raclopride as radioligand
# key: entry, value: pIC50
Reminder that pIC50 means the negative base-10 logarithm of the concentration expressed in mol/L.

Worked examples, 4 compounds total:
input-smiles | reported-endpoint | quantitative-result
Oc1ccc(C#CCN2CCC(Cc3ccccc3)CC2)cc1 | pIC50 | 5.77
Nc1ccc(C#CCCN2CCC(O)(Cc3ccccc3)CC2)cc1 | pIC50 | 4.82
CNc1ccc(C#CCCN2CCC(Cc3ccccc3)CC2)cc1 | pIC50 | 6.52
Nc1ccc(C#CCCN2CCC(Cc3ccccc3)CC2)cc1N | pIC50 | 5.96

Q: Lab request: please report pIC50 under test system D(2) dopamine receptor (Rattus norvegicus, UniProt P61169) for Cc1ccc(CC2(O)CCN(CCC#Cc3ccc(N)cc3)CC2)cc1
Result: 5.00

Q: Lab request: please report pIC50 under test system D(2) dopamine receptor (Rattus norvegicus, UniProt P61169) for Cc1ccc(CC2CCN(CCC#Cc3ccc(N)cc3)CC2)cc1
Result: 6.10

Q: Lab request: please report pIC50 under test system D(2) dopamine receptor (Rattus norvegicus, UniProt P61169) for CS(=O)(=O)Nc1ccc(C#CCCN2CCC(Cc3ccccc3)CC2)cc1
Result: 6.70

Q: Lab request: please report pIC50 under test system D(2) dopamine receptor (Rattus norvegicus, UniProt P61169) for CC(=O)Nc1ccc(C#CCCN2CCC(Cc3ccccc3)CC2)cc1
Result: 7.00
